# Test system: HIV-1 BH10 K103N mutant virus
# testName: microbe, parasite or virus in culture
# Type: cell-based
# measurementParameters: read-out: EC50, K103N; Example 16 comparative tables; unit inferred
measurementName: EC50 (nM)
Numbers only; they are read as nM.

Prompt line: For the compound CO[P@](=O)(c1cc(C)cc(/C=C/C#N)c1)c1c(C(N)=O)[nH]c2ccc(Cl)c(F)c12 [Compound I] , what EC50 is on record?
Response line: 0.9

----------
# testedSystem: HIV-1 RT L1001 (L100I) mutant enzyme (Human immunodeficiency virus type 1 group M subtype B, UniProt P03366, L699I)
# Construct: Antiviral in vitro activity against site-directed mutant HIV-1 RT enzymes
# testName: biochemical
measurementName: pIC50
Conceptually, pIC50 converts a concentration in mol/L into minus its log10.

Prompt line: State the recorded pIC50 for this entry: "CO[P@](=O)(c1cc(C)cc(/C=C/C#N)c1)c1c(C(N)=O)[nH]c2ccc(Cl)c(F)c12"
Response line: 6.80

Prompt line: Which pIC50 value belongs to "CO[P@](=O)(c1cc(C)cc(/C=C/C#N)c1)c1c(C(N)=O)[nH]c2ccc(Cl)cc12" ?
Response line: 6.89

Hello, the source for this data is patent US8486991B2, in case you need it.
